- TARGET ENTITY: FPR W190/N192 (Homo sapiens, UniProt P21462, R190W)
- Sequence (P21462 1-350 R190W): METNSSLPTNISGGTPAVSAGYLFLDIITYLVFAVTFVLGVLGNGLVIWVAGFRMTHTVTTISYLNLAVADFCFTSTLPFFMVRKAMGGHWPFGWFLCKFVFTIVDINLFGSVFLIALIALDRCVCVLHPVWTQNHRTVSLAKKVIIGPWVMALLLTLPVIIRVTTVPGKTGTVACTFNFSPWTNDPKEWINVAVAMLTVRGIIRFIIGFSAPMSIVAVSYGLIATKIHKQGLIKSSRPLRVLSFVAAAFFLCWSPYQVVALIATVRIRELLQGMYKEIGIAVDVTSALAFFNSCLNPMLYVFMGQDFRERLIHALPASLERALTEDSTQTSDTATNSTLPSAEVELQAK
- MEASUREMENT NOTES: FACScan analysis of ligand binding
REPORTED ENDPOINT: pKi
One number for each entry, as −log10 of the molar value.

Query block: Lab note: need pKi with FPR W190/N192 (Homo sapiens, UniProt P21462, R190W) for entry Ac-WEDWVGWI-NH2 , please look it up.
Result block: 5.59

====

- TARGET ENTITY: FPR R190/K192 (Homo sapiens, UniProt P21462, N192K)
- MEASUREMENT NOTES: FACScan analysis of ligand binding
- CONDITION PARAMETERS: Ki for binding of peptides to R190/K192 FPR, ± SEM; vs 0.38 nM formyl-Nle-Leu-Phe-Nle-Tyr-Lys-FITC, 4 °C, 60 min
REPORTED ENDPOINT: pKi
Numbers only, as −log10 of the molar value.

Query block: Recorded pKi for Ac-WEDWVGWI-NH2 , please?
Result block: 5.89

// data source = paper PMC2094211
